Assay: Luciferase mRNA nanoparticle biophysical data (DLS diameter and PDI, Ribogreen encapsulation)
Assay type: physicochemical
Conditions: DLS; luciferase mRNA nanoparticles (IL1:DSPC:cholesterol:PEG-DMG-2K) modified with the lipid amine
Metric: PDI
Give bare numbers.

For orientation, consider the following solved cases.
>  <Compound>
CC[C@H](CC[C@@H](C)[C@H]1CC[C@H]2[C@@H]3CC=C4C[C@@H](OC(=O)N(CCC5CC(N)C5)CCC5CC(N)C5)CC[C@]4(C)[C@H]3CC[C@]12C)C(C)C.Cl.Cl (some centres unmarked)

>  <Experimental result>
0.14

$$$$
>  <Compound>
CC[C@H](CC[C@@H](C)[C@H]1CC[C@H]2[C@@H]3CC=C4C[C@@H](OC(=O)N(CC56CC(N)(C5)C6)CC56CC(N)(C5)C6)CC[C@]4(C)[C@H]3CC[C@]12C)C(C)C.Cl.Cl

>  <Experimental result>
0.33

$$$$
>  <Compound>
CC[C@H](CC[C@@H](C)[C@H]1CC[C@H]2[C@@H]3CC=C4C[C@@H](SSCCC(=O)N(CCC5CC(N)C5)CCC5CC(N)C5)CC[C@]4(C)[C@H]3CC[C@]12C)C(C)C.Cl.Cl (some centres unmarked)

>  <Experimental result>
0.17

$$$$
>  <Compound>
CC(C)CCC[C@@H](C)[C@H]1CC[C@H]2[C@@H]3CC=C4C[C@@H](OC(=O)CCCC(=O)N(CCC5CC(N)C5)CCC5CC(N)C5)CC[C@]4(C)[C@H]3CC[C@]12C.Cl.Cl (some centres unmarked)

>  <Experimental result>
0.13

$$$$

Input line: Record request: PDI value, item CC[C@H](CC[C@@H](C)[C@H]1CC[C@H]2[C@@H]3CC=C4C[C@@H](OC(=O)N(CCCCNCCC(C)N)CCC(C)N)CC[C@]4(C)[C@H]3CC[C@]12C)C(C)C.Cl.Cl.Cl (some centres unmarked)
Output line: 0.18

----------
Assay: Luciferase mRNA nanoparticle biophysical data (DLS diameter and PDI, Ribogreen encapsulation)
Type: physicochemical
Settings: DLS; luciferase mRNA nanoparticles (IL1:DSPC:cholesterol:PEG-DMG-2K) modified with the lipid amine
What Diameter (nm) was measured for each of the following?
Quick note: unit goes after the number.

For orientation, consider the following solved cases.
>  <Molecule>
CC(C)CCC[C@@H](C)[C@H]1CC[C@H]2[C@@H]3CC=C4C[C@@H](OC(=O)CCCC(=O)N(CCC5CC(N)C5)CCC5CC(N)C5)CC[C@]4(C)[C@H]3CC[C@]12C.Cl.Cl (some centres unmarked)

>  <Metric>
Diameter (nm)

>  <Experimental result>
80 nm

$$$$
>  <Molecule>
CC[C@H](CC[C@@H](C)[C@H]1CC[C@H]2[C@@H]3CC=C4C[C@@H](OC(=O)N(CC56CC(N)(C5)C6)CC56CC(N)(C5)C6)CC[C@]4(C)[C@H]3CC[C@]12C)C(C)C.Cl.Cl

>  <Metric>
Diameter (nm)

>  <Experimental result>
78 nm

$$$$
>  <Molecule>
CC[C@H](CC[C@@H](C)[C@H]1CC[C@H]2[C@@H]3CC=C4C[C@@H](SSCCC(=O)N(CCC5CC(N)C5)CCC5CC(N)C5)CC[C@]4(C)[C@H]3CC[C@]12C)C(C)C.Cl.Cl (some centres unmarked)

>  <Metric>
Diameter (nm)

>  <Experimental result>
73 nm

$$$$

Hi team, please reply with Diameter (nm) for each item in this list.
1. CC[C@H](CC[C@@H](C)[C@H]1CC[C@H]2[C@@H]3CC=C4C[C@@H](OC(=O)N(CCC5CC(N)C5)CCC5CC(N)C5)CC[C@]4(C)[C@H]3CC[C@]12C)C(C)C.Cl.Cl (some centres unmarked)
2. CC[C@H](CC[C@@H](C)[C@H]1CC[C@H]2[C@@H]3CC=C4C[C@@H](OC(=O)N(CCCCNCCC(C)N)CCC(C)N)CC[C@]4(C)[C@H]3CC[C@]12C)C(C)C.Cl.Cl.Cl (some centres unmarked)

Output line:
1. 73 nm
2. 76 nm

Value source: patent US20250235531A1
